Values from patent US9434711B2

target: canine TRPM8 (Canis lupus familiaris); experiment: In Vitro Canine TRPM8 Functional Assay (Ca2+ fluorescence, icilin activation); format: cell-based; conditions: compound at 0.5 μM; canine TRPM8, icilin activation; read-out: % Inh @ 0.5
Sequence (Q1A7N1 1-1104): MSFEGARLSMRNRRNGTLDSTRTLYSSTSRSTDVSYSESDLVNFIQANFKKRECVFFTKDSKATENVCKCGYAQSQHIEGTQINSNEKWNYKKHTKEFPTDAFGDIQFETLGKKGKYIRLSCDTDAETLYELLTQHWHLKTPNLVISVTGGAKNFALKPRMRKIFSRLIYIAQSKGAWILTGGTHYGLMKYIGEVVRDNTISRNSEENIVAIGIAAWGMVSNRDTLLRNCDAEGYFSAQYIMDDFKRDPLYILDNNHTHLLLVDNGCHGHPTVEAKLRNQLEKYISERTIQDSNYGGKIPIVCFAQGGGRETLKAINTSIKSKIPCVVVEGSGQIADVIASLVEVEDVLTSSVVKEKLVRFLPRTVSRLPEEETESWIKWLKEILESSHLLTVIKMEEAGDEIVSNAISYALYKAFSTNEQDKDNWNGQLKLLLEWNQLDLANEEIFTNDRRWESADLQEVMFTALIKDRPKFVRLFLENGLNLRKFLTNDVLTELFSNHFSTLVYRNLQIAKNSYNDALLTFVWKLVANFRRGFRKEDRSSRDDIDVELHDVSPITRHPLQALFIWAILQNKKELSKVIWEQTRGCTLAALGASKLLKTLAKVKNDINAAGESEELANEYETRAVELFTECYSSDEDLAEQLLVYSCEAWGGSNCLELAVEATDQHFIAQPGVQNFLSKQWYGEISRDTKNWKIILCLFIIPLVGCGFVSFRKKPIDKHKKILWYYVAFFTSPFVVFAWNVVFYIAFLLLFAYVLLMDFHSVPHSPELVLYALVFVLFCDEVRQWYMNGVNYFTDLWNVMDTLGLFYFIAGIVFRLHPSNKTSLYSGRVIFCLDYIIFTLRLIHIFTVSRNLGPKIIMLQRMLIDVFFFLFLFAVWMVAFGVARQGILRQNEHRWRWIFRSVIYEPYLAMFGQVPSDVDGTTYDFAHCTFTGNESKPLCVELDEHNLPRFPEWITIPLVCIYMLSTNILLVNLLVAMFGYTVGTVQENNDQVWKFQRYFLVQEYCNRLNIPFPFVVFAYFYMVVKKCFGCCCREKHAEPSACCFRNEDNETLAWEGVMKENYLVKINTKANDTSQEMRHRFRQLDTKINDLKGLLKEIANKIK
measure: inhibition at 0.5 µM (%)

molecule: COc1ccc(Br)cc1CN(c1sc2ccccc2c1Br)S(=O)(=O)c1ccccc1 [Compound 161]
study target: canine TRPM8 (Canis lupus familiaris)
numeric result: 95

molecule: Cc1c(N(Cc2ccc(F)c(F)c2)S(=O)(=O)c2cccc(O)c2)sc2ccccc12 [Compound 286]
study target: canine TRPM8 (Canis lupus familiaris)
numeric result: 99

molecule: Cn1cnc(S(=O)(=O)N(Cc2ccc(F)c(F)c2)c2cc3ccccc3s2)c1 [Compound 130]
study target: canine TRPM8 (Canis lupus familiaris)
numeric result: 98

molecule: Cc1c(N(Cc2ccc(F)c(F)c2)S(=O)(=O)N(C)C)sc2ccccc12 [Compound 44]
study target: canine TRPM8 (Canis lupus familiaris)
numeric result: 98

molecule: Cc1c(N(Cc2ccc(F)c(F)c2)S(=O)(=O)c2ccc(O)cc2)sc2ccccc12 [Compound 285]
study target: canine TRPM8 (Canis lupus familiaris)
numeric result: 100

molecule: O=C1CCCN1CCN(c1sc2ccccc2c1Br)S(=O)(=O)c1ccccc1 [Compound 236]
study target: canine TRPM8 (Canis lupus familiaris)
numeric result: 68

molecule: CCS(=O)(=O)N(Cc1ccc(F)c(F)c1)c1sc2ccccc2c1Br [Compound 152]
study target: canine TRPM8 (Canis lupus familiaris)
numeric result: 95

molecule: COc1cc(CN(c2cc3ccccc3s2)S(=O)(=O)c2ccccc2)ccc1F [Compound 60]
study target: canine TRPM8 (Canis lupus familiaris)
numeric result: 97

molecule: O=S(=O)(c1ccccc1)N(Cc1ccccc1F)c1cc2ccccc2s1 [Compound 50]
study target: canine TRPM8 (Canis lupus familiaris)
numeric result: 99

molecule: O=S(=O)(c1ccccc1)N(Cc1ccccc1)c1sc2ccccc2c1Br [Compound 175]
study target: canine TRPM8 (Canis lupus familiaris)
numeric result: 97

molecule: CC(C)(C)OC(=O)N1CCC(CN(c2sc3ccccc3c2Cl)S(=O)(=O)c2ccccc2)CC1 [Compound 90]
study target: canine TRPM8 (Canis lupus familiaris)
numeric result: 99

molecule: O=C(O)c1ccc(S(=O)(=O)N(Cc2ccc(F)c(C(F)(F)F)c2)c2sc3ccccc3c2Br)cc1 [Compound 292]
study target: canine TRPM8 (Canis lupus familiaris)
numeric result: 100

molecule: Cc1c(N(Cc2ccc(OC(F)(F)F)cc2)S(=O)(=O)c2ccc3ncccc3c2)sc2ccccc12 [Compound 31]
study target: canine TRPM8 (Canis lupus familiaris)
numeric result: 100

molecule: CCS(=O)(=O)N(Cc1ccc(F)c(C(F)(F)F)c1)c1sc2ccccc2c1C [Compound 40]
study target: canine TRPM8 (Canis lupus familiaris)
numeric result: 97

molecule: O=S(=O)(c1ccccc1)N(Cc1ccc(F)c(F)c1)c1sc2ccccc2c1Cl [Compound 24]
study target: canine TRPM8 (Canis lupus familiaris)
numeric result: 100

molecule: O=S(=O)(c1ccccc1)N(Cc1ccc(OC(F)(F)F)cc1)c1sc2ccccc2c1Br [Compound 174]
study target: canine TRPM8 (Canis lupus familiaris)
numeric result: 99

molecule: Cc1cccc(CN(c2sc3ccccc3c2Br)S(=O)(=O)c2ccccc2)c1 [Compound 179]
study target: canine TRPM8 (Canis lupus familiaris)
numeric result: 98

molecule: O=S(=O)(c1cccnc1)N(Cc1ccc(F)c(F)c1)c1sc2ccccc2c1Br [Compound 149]
study target: canine TRPM8 (Canis lupus familiaris)
numeric result: 101

molecule: CS(=O)(=O)CCN(c1sc2ccccc2c1Br)S(=O)(=O)c1ccccc1 [Compound 239]
study target: canine TRPM8 (Canis lupus familiaris)
numeric result: 96

molecule: O=S(=O)(c1ccccc1)N(Cc1cccc(F)c1)c1cc2ccccc2s1 [Compound 3]
study target: canine TRPM8 (Canis lupus familiaris)
numeric result: 98

molecule: O=S(=O)(c1ccccc1)N(Cc1ccc(OC(F)(F)F)cc1)c1sc2ccccc2c1Cl [Compound 6]
study target: canine TRPM8 (Canis lupus familiaris)
numeric result: 99

molecule: O=S(=O)(c1ccccc1)N(Cc1ccncc1)c1sc2ccccc2c1Br [Compound 170]
study target: canine TRPM8 (Canis lupus familiaris)
numeric result: 97

molecule: O=S(=O)(c1ccccc1)N(Cc1cccc(F)c1)c1sc2ccccc2c1Cl [Compound 23]
study target: canine TRPM8 (Canis lupus familiaris)
numeric result: 99

molecule: Cc1c(N(Cc2ccc(F)c(F)c2)S(=O)(=O)c2cccc3cnccc23)sc2ccccc12 [Compound 27]
study target: canine TRPM8 (Canis lupus familiaris)
numeric result: 99

molecule: CC(C)(C)OCCN(c1sc2ccccc2c1Br)S(=O)(=O)c1ccccc1 [Compound 234]
study target: canine TRPM8 (Canis lupus familiaris)
numeric result: 93

molecule: NCCN(c1sc2ccccc2c1Cl)S(=O)(=O)c1ccccc1 [Compound 270]
study target: canine TRPM8 (Canis lupus familiaris)
numeric result: 75

molecule: Cc1c(N(Cc2ccc(OC(F)(F)F)cc2)S(=O)(=O)c2cccnc2)sc2ccccc12 [Compound 13]
study target: canine TRPM8 (Canis lupus familiaris)
numeric result: 97

molecule: Cc1c(N(Cc2ccc(C(F)(F)F)c(F)c2)S(=O)(=O)c2cccs2)sc2ccccc12 [Compound 38]
study target: canine TRPM8 (Canis lupus familiaris)
numeric result: 97

molecule: O=C1NCCN1CCN(c1sc2ccccc2c1Br)S(=O)(=O)c1ccccc1 [Compound 240]
study target: canine TRPM8 (Canis lupus familiaris)
numeric result: 43

molecule: CCCCS(=O)(=O)N(Cc1ccc(F)c(F)c1)c1cc2ccccc2s1 [Compound 37]
study target: canine TRPM8 (Canis lupus familiaris)
numeric result: 96

molecule: CN(C)CCN(c1sc2ccccc2c1Cl)S(=O)(=O)c1ccccc1 [Compound 87]
study target: canine TRPM8 (Canis lupus familiaris)
numeric result: 94

molecule: CCCCN(c1cc2ccccc2s1)S(=O)(=O)c1ccccc1 [Compound 117]
study target: canine TRPM8 (Canis lupus familiaris)
numeric result: 99

molecule: COc1ccc(Br)c(CN(c2sc3ccccc3c2Br)S(=O)(=O)c2ccccc2)c1 [Compound 163]
study target: canine TRPM8 (Canis lupus familiaris)
numeric result: 92

molecule: O=S(=O)(c1ccccc1)N(CC1CCCCC1)c1sc2ccccc2c1Cl [Compound 80]
study target: canine TRPM8 (Canis lupus familiaris)
numeric result: 98
